# credit: patent US5763430A

Tested on: E. coli
Assay: antibiotic activity (MIC)
Assay type: cell-based
Settings: Escherichia coli; E. coli; read-out: MIC
assayMetric: MIC (µg/mL)
Answers are plain numbers, in µg/mL.

INSERT INTO measurements (compound, value) VALUES
  ('COC(=O)CC[C@@H](C)[C@H]1CC[C@H]2[C@@H]3CC[C@H]4C[C@H](NCCCNCCCCNCCCN)CC[C@]4(C)[C@H]3CC[C@]12C [Compound 458]', 32),
  ('COC(=O)CC[C@@H](C)[C@H]1CC[C@H]2[C@@H]3[C@H](O)C[C@H]4C[C@H](NCCCNCCCCN)CC[C@]4(C)[C@H]3CC[C@]12C [Compound 394]', 64);

Now take the following compound into account.
Record summary for C=C(C)C(=O)CC[C@@H](C)[C@H]1CC[C@H]2[C@@H]3[C@H](O)C[C@H]4C[C@@H](NCCCNCCCCN)CC[C@]4(C)[C@H]3CC[C@]12C [Compound 1361] : reported MIC = 32
